Listed compounds paired with reported Average Relative Light Units ± Standard Deviation
Test system: HeLa cells
method: Luciferase Protein Expression Assay in HeLa Cells
Format: cell-based, Human
condition description: LNPs encapsulating Luciferase mRNA, 25 ng per well, N=4 wells; 5 h serum-free then 24 h; ONE-Glo
Where a name gives a salt, the structure may show the parent alone.
quantity measured: Average Relative Light Units ± Standard Deviation (Relative Light Units)

INSERT INTO results (compound, units, reading) VALUES
  ('CC(C)CCC[C@@H](C)[C@H]1CC[C@H]2[C@@H]3CC=C4C[C@@H](OC(=O)N(CCCCNCC(F)(F)CN)CC(F)(F)CN)CC[C@]4(C)[C@H]3CC[C@]12C [SA79, trihydrochloride]', 'Relative Light Units', 105.1),
  ('CC[C@H](CC[C@@H](C)[C@H]1CC[C@H]2[C@@H]3CC=C4C[C@@H](OC(=O)N(CCCCNC)CCCNC)CC[C@]4(C)[C@H]3CC[C@]12C)C(C)C [SA180, dihydrochloride]', 'Relative Light Units', 35476);

----------
method: Encapsulation of mRNA nanoparticles with lipid amines using Ribogreen assay
Type: physicochemical
condition description: Luciferase mRNA nanoparticle modified with lipid amine
Counter-ions that a name gives are not always drawn.
quantity measured: % Encapsulation (Ribogreen) (%)

INSERT INTO results (molecule, quantity_measured, reading) VALUES
  ('CC(C)CCC[C@@H](C)[C@H]1CC[C@H]2[C@@H]3CC=C4C[C@@H](OC(=O)CC(=O)N(CCCN)CCCCNCCCN)CC[C@]4(C)[C@H]3CC[C@]12C.Cl.Cl.Cl', '% Encapsulation (Ribogreen)', 99.7),
  ('CC(C)CCC[C@@H](C)[C@H]1CC[C@H]2[C@@H]3CC=C4C[C@@H](OC(=O)N(CCCCNCCC(C)N)CCC(C)N)CC[C@]4(C)[C@H]3CC[C@]12C (stereo partly drawn) [SA76, trihydrochloride]', '% Encapsulation (Ribogreen)', 98.1),
  ('CC(C)CCC[C@@H](C)[C@H]1CC[C@H]2[C@@H]3CC=C4C[C@@H](OC(=O)CCC(=O)N(CCCN)CCCCCCCCN)CC[C@]4(C)[C@H]3CC[C@]12C [SA72, dihydrochloride]', '% Encapsulation (Ribogreen)', 99.1),
  ('CC(C)CCC[C@@H](C)[C@H]1CC[C@H]2[C@@H]3CC=C4C[C@@H](OC(=O)C(=O)N(CCCN)CCCCNCCCN)CC[C@]4(C)[C@H]3CC[C@]12C [SA66, trihydrochloride]', '% Encapsulation (Ribogreen)', 88.2),
  ('CC[C@H](CC[C@@H](C)[C@H]1CC[C@H]2[C@@H]3CC=C4C[C@@H](OC(=O)CCC(=O)N(CCC(C)(C)N)CCC(C)(C)N)CC[C@]4(C)[C@H]3CC[C@]12C)C(C)C [SA170, dihydrochloride]', '% Encapsulation (Ribogreen)', 99.6),
  ('CC(C)CCC[C@@H](C)[C@H]1CC[C@H]2[C@@H]3CC=C4C[C@@H](OC(=O)N(CCCCNCC5(CN)CC5)CC5(CN)CC5)CC[C@]4(C)[C@H]3CC[C@]12C.Cl.Cl.Cl', '% Encapsulation (Ribogreen)', 99.4),
  ('CC(C)CCC[C@@H](C)[C@H]1CC[C@H]2[C@@H]3CC=C4C[C@@H](OC(=O)CN(CCCCCCCCN)C(=O)CCCCN)CC[C@]4(C)[C@H]3CC[C@]12C [SA122, dihydrochloride]', '% Encapsulation (Ribogreen)', 99.4),
  ('CC(C)CCC[C@@H](C)[C@H]1CC[C@H]2[C@@H]3CC=C4C[C@@H](OC(=O)CN(CCCCCCCCN)C(=O)CCCCCN)CC[C@]4(C)[C@H]3CC[C@]12C [SA123, dihydrochloride]', '% Encapsulation (Ribogreen)', 99.5),
  ('CC[C@H](CC[C@@H](C)[C@H]1CC[C@H]2[C@@H]3CC=C4C[C@@H](OC(=O)CCCCC(=O)N(CCCN)CCCCNCCCN)CC[C@]4(C)[C@H]3CC[C@]12C)C(C)C [SA90, trihydrochloride]', '% Encapsulation (Ribogreen)', 99.6),
  ('CC[C@H](CC[C@@H](C)[C@H]1CC[C@H]2[C@@H]3CC=C4C[C@@H](OC(=O)CCCC(=O)N(CCCN)CCCCCCCCN)CC[C@]4(C)[C@H]3CC[C@]12C)C(C)C.Cl.Cl', '% Encapsulation (Ribogreen)', 99.3),
  ('CC(C)CCC[C@@H](C)[C@H]1CC[C@H]2[C@@H]3CC=C4C[C@@H](OC(=O)CN(CCCCCCCCN)C(=O)[C@@H](N)CCCN)CC[C@]4(C)[C@H]3CC[C@]12C.Cl.Cl.Cl', '% Encapsulation (Ribogreen)', 99.5),
  ('CC(C)CCC[C@@H](C)[C@H]1CC[C@H]2[C@@H]3CC=C4C[C@@H](OC(=O)N(CCCCNCCC(C)(C)N)CCC(C)(C)N)CC[C@]4(C)[C@H]3CC[C@]12C [SA78, trihydrochloride]', '% Encapsulation (Ribogreen)', 99.8),
  ('CC(C)CCC[C@@H](C)[C@H]1CC[C@H]2[C@@H]3CC=C4C[C@@H](OC(=O)CN(CCCN)CCCCCCCCN)CC[C@]4(C)[C@H]3CC[C@]12C [SA71, trihydrochloride]', '% Encapsulation (Ribogreen)', 99.1),
  ('CC[C@H](CC[C@@H](C)[C@H]1CC[C@H]2[C@@H]3CC=C4C[C@@H](OC(=O)[C@H](C)N(CCCN)CCCCNCCCN)CC[C@]4(C)[C@H]3CC[C@]12C)C(C)C', '% Encapsulation (Ribogreen)', 99.7),
  ('CC[C@H](CC[C@@H](C)[C@H]1CC[C@H]2[C@@H]3CC=C4C[C@@H](OC(=O)N(CCCN)CCCCN)CC[C@]4(C)[C@H]3CC[C@]12C)C(C)C [SA120, dihydrochloride]', '% Encapsulation (Ribogreen)', 99.1),
  ('CC[C@H](CC[C@@H](C)[C@H]1CC[C@H]2[C@@H]3CC=C4C[C@@H](OC(=O)N(CCCCCCCC(C)(C)N)CCC(C)(C)N)CC[C@]4(C)[C@H]3CC[C@]12C)C(C)C [SA153, dihydrochloride]', '% Encapsulation (Ribogreen)', 95.8),
  ('CC[C@H](CC[C@@H](C)[C@H]1CC[C@H]2[C@@H]3CC=C4C[C@@H](OC(=O)N(CCCCCCN)CCCCCCN)CC[C@]4(C)[C@H]3CC[C@]12C)C(C)C [SA82, dihydrochloride]', '% Encapsulation (Ribogreen)', 99.1),
  ('CC(C)CCC[C@@H](C)[C@H]1CC[C@H]2[C@@H]3CC=C4C[C@@H](SSCCC(=O)N(CCCCNCCC(C)N)CCC(C)N)CC[C@]4(C)[C@H]3CC[C@]12C (stereo partly drawn) [SA171, trihydrochloride]', '% Encapsulation (Ribogreen)', 99.2);

----------
method: Diameter and PDI from DLS measurements of mRNA nanoparticles with lipid amines
Format: physicochemical
condition description: Luciferase mRNA nanoparticle modified with lipid amine
Structures can show the parent of a compound that is named as a salt.
quantity measured: Diameter (nm)

INSERT INTO measurements (compound, reading) VALUES
  ('CC[C@H](CC[C@@H](C)[C@H]1CC[C@H]2[C@@H]3CC=C4C[C@@H](OC(=O)N(CCCN)CCCCCCCCCCN)CC[C@]4(C)[C@H]3CC[C@]12C)C(C)C [SA96, dihydrochloride]', '71 nm'),
  ('CC(C)CCC[C@@H](C)[C@H]1CC[C@H]2[C@@H]3CC=C4C[C@@H](OC(=O)CCCCC(=O)N(CCCN)CCCCNCCCN)CC[C@]4(C)[C@H]3CC[C@]12C [SA89, trihydrochloride]', '77 nm'),
  ('CC(C)CCC[C@@H](C)[C@H]1CC[C@H]2[C@@H]3CC=C4C[C@@H](SSCCC(=O)N(CCCN)CCCCCCCCN)CC[C@]4(C)[C@H]3CC[C@]12C [SA97, dihydrochloride]', '72 nm'),
  ('CCC(N)(CC)CCNCCCCN(CCC(N)(CC)CC)C(=O)CCSS[C@H]1CC[C@@]2(C)C(=CC[C@H]3[C@@H]4CC[C@H]([C@H](C)CCCC(C)C)[C@@]4(C)CC[C@@H]32)C1 [SA184, trihydrochloride]', '74 nm');

----------
method: Encapsulation of mRNA nanoparticles with lipid amines using Ribogreen assay
Type: physicochemical
condition description: CFTR mRNA nanoparticle with lipid amine
Description: Lipids are dissolved in ethanol at a concentration of 24 mg/mL and molar ratios of 49.0:11.2:39.3:0.5 (IL1:DSPC:cholesterol:PEG-DMG-2K) and mixed with the acidification buffer (45 mM acetate buffer at pH 4). The lipid solution and acidification buffer are mixed using a multi-inlet vortex mixer at a 3:7 volumetric ratio of lipid:buffer for mixer 1 and mixer 2 and a 1:3 volumetric ratio of lipid:buffer (25% ethanol) for mixer 3. […]
Structures can show the parent of a compound that is named as a salt.
quantity measured: % Encapsulation (Ribogreen)

INSERT INTO assay_data (compound, reading) VALUES
  ('CC[C@H](CC[C@@H](C)[C@H]1CC[C@H]2[C@@H]3CC=C4C[C@@H](SSCCC(=O)N(CCCCCCCC(C)N)CCC(C)N)CC[C@]4(C)[C@H]3CC[C@]12C)C(C)C (stereo partly drawn) [SA178, dihydrochloride]', '100%'),
  ('CCC(N)(CC)CCNCCCCN(CCC(N)(CC)CC)C(=O)CCSS[C@H]1CC[C@@]2(C)C(=CC[C@H]3[C@@H]4CC[C@H]([C@H](C)CCCC(C)C)[C@@]4(C)CC[C@@H]32)C1 [SA184, trihydrochloride]', '99.0%'),
  ('CC(C)CCC[C@@H](C)[C@H]1CC[C@H]2[C@@H]3CC=C4C[C@@H](OC(=O)N(CCCC(C)(C)N)CCC(C)(C)N)CC[C@]4(C)[C@H]3CC[C@]12C [SA157, dihydrochloride]', '99.8%'),
  ('CC(C)CCC[C@@H](C)[C@H]1CC[C@H]2[C@@H]3CC=C4C[C@@H](OC(=O)CCCC(=O)N(CCCN(C)C)CCCN(C)C)CC[C@]4(C)[C@H]3CC[C@]12C.Cl.Cl [SA51]', '98.4%'),
  ('CC(C)CCC[C@@H](C)[C@H]1CC[C@H]2[C@@H]3CC=C4C[C@@H](OC(=O)CN(CCCCCCCCN)C(=O)[C@@H](N)CCCN)CC[C@]4(C)[C@H]3CC[C@]12C.Cl.Cl.Cl [SA129]', '96.2%'),
  ('CC(C)CCC[C@@H](C)[C@H]1CC[C@H]2[C@@H]3CC=C4C[C@@H](SSCCC(=O)N(CCCN)CCCCCCCCN)CC[C@]4(C)[C@H]3CC[C@]12C [SA97, dihydrochloride]', '98.4%'),
  ('CC(C)CCC[C@@H](C)[C@H]1CC[C@H]2[C@@H]3CC=C4C[C@@H](OC(=O)N(CCCN)CCCCCCCCCCN)CC[C@]4(C)[C@H]3CC[C@]12C [SA95, dihydrochloride]', '99.3%'),
  ('CC[C@H](CC[C@@H](C)[C@H]1CC[C@H]2[C@@H]3CC=C4C[C@@H](OC(=O)CCCC(=O)N(CCCCNCCC(C)(C)N)CCC(C)(C)N)CC[C@]4(C)[C@H]3CC[C@]12C)C(C)C.Cl.Cl.Cl [SA137]', '98.3%'),
  ('CC[C@H](CC[C@@H](C)[C@H]1CC[C@H]2[C@@H]3CC=C4C[C@@H](OC(=O)N(CCCN)CCCCCCCCN)CC[C@]4(C)[C@H]3CC[C@]12C)C(C)C [SA69, dihydrochloride]', '99.9%'),
  ('CC(C)CCC[C@@H](C)[C@H]1CC[C@H]2[C@@H]3CC=C4C[C@@H](OC(=O)CC(=O)N(CCCN(C)C)CCCN(C)C)CC[C@]4(C)[C@H]3CC[C@]12C.Cl.Cl [SA50]', '99.3%'),
  ('CC(C)CCC[C@@H](C)[C@H]1CC[C@H]2[C@@H]3CC=C4C[C@@H](OC(=O)C(=O)N(CCCN)CCCCNCCCN)CC[C@]4(C)[C@H]3CC[C@]12C [SA66, trihydrochloride]', '99.5%'),
  ('CC[C@H](CC[C@@H](C)[C@H]1CC[C@H]2[C@@H]3CC=C4C[C@@H](OC(=O)CCC(=O)N(CCCCCCCC(C)N)CCC(C)N)CC[C@]4(C)[C@H]3CC[C@]12C)C(C)C (stereo partly drawn) [SA163, dihydrochloride]', '100%'),
  ('CC(C)CCC[C@@H](C)[C@H]1CC[C@H]2[C@@H]3CC=C4C[C@@H](OC(=O)CCC(=O)N(CCCC(C)(C)N)CCC(C)(C)N)CC[C@]4(C)[C@H]3CC[C@]12C [SA166, dihydrochloride]', '99.5%'),
  ('CC(C)CCC[C@@H](C)[C@H]1CC[C@H]2[C@@H]3CC=C4C[C@@H](OC(=O)N(CCCCCCCC(C)N)CCC(C)N)CC[C@]4(C)[C@H]3CC[C@]12C (stereo partly drawn) [SA151, dihydrochloride]', '98.2%'),
  ('CC(C)CCC[C@@H](C)[C@H]1CC[C@H]2[C@@H]3CC=C4C[C@@H](OC(=O)CN(CCCCCCCCN)C(=O)CCCCCN)CC[C@]4(C)[C@H]3CC[C@]12C [SA123, dihydrochloride]', '99.0%'),
  ('CC(C)CCC[C@@H](C)[C@H]1CC[C@H]2[C@@H]3CC=C4C[C@@H](OC(=O)CC(=O)N(CCCN)CCCCNCCCN)CC[C@]4(C)[C@H]3CC[C@]12C.Cl.Cl.Cl [SA59]', '99.6%'),
  ('CCC(N)CCNCCCCN(CCC(N)CC)C(=O)O[C@H]1CC[C@@]2(C)C(=CC[C@H]3[C@@H]4CC[C@H]([C@H](C)CCCC(C)C)[C@@]4(C)CC[C@@H]32)C1.Cl.Cl.Cl (stereo partly drawn) [SA127]', '99.5%'),
  ('CC[C@H](CC[C@@H](C)[C@H]1CC[C@H]2[C@@H]3CC=C4C[C@@H](OC(=O)CCC(=O)N(CCCCCCCC(C)(C)N)CCC(C)(C)N)CC[C@]4(C)[C@H]3CC[C@]12C)C(C)C [SA165, dihydrochloride]', '98.8%');
